Data credit: PubChem BioAssay (NCI)

growth reference
tested on: MDA-MB-435 melanoma; assay: NCI-60 one-dose screen, 48 h (100 = growth as untreated, 0 = no growth, -100 = all killed); conditions: 10 µM unless noted
Compounds without any hit were thinned out: in the full panel of roughly 83,000, 20% have a hit. Calls of active or inactive are those of the source. Rule for the calls: active = growth percent below 10; inactive = the rest.

# annotated cases, reported growth shown
>>> measurement("S=C(S)Oc1cccc2cccnc12")
"104% (inactive)"
>>> measurement("COc1ccc(C2=NNC(c3ccc(Oc4nc5c(c(=O)n(C)c(=O)n5C)n4C)c(OC)c3)C2)cc1 (configuration not stated)")
"93% (inactive)"
>>> measurement("COc1cc(CN(CCC(O)N2CCCC2=O)Cc2ccc3c(c2)OCO3)cc(OC)c1OC (configuration not stated)")
"103% (inactive)"
>>> measurement("Cc1ccc(C)c2c1SC1=NNC(Oc3ccc(Cl)cc3)=C(C#N)C(=N)N12")
"113% (inactive)"
>>> measurement("CC(C)[C@@]12C[C@@H](OC(=O)C3CO3)[C@@](C)(O1)[C@@H]1CC[C@@H](C)[C@H]1[C@@H]2OC(=O)/C=C/c1ccccc1 (some centres not stated)")
"109% (inactive)"

Exercise: Field request: growth | item: Cc1ccc(Nc2cccc3ccccc23)cc1
Key: 29.7% (inactive)

Exercise: Field request: growth | item: COc1ccccc1/C=N\Nc1ccc([N+](=O)[O-])cn1
Key: 104% (inactive)

Exercise: Field request: growth | item: CN(C)CCNC(=O)n1cc(-c2ccncc2)c(-c2cc(O)cc(Cl)c2)n1
Key: 51.1% (inactive)

Exercise: Field request: growth | item: CCc1c(C)c2ccc(O)c(-c3cc(-c4ccccc4)c(C#N)c(=O)[nH]3)c2oc1=O
Key: 114% (inactive)

Exercise: Field request: growth | item: N/C(=N\OC(=O)c1ccccc1)C(C(=O)NOC(=O)c1ccccc1)C1CCCCC1 (configuration not stated)
Key: 38.9% (inactive)

Exercise: Field request: growth | item: CC1=CC(=O)OC1C/C=C(\C)CCC1[C@@]2(C)CCC[C@@](C)(C(=O)O)C2CC[C@@]1(C)O (some centres not stated)
Key: 16.7% (inactive)

Exercise: Field request: growth | item: CC1(C)CC(=O)c2cc3c(N)c(C(=O)Nc4ccc(Cl)cc4)sc3nc2C1
Key: 109% (inactive)

Exercise: Field request: growth | item: COC(=O)[C@H](Cc1cn(C)cn1)NC(=O)[C@H](CC(C)C)NC(=O)Nc1cc(C(F)(F)F)cc(C(F)(F)F)c1
Key: -97.1% [100 µM] (active)

Exercise: Field request: growth | item: CC(=O)Cc1ccccn1
Key: 102% (inactive)

Exercise: Field request: growth | item: COc1cc(OC)c(Cl)cc1N
Key: 98.2% (inactive)

Exercise: Field request: growth | item: O=C(O)C(CCc1ccccc1)NCc1ccccc1 (configuration not stated)
Key: 104% (inactive)

* * *

tested on: SK-MEL-2 melanoma; test: NCI-60 one-dose screen, 48 h; details: 10 µM unless noted
Compounds without any hit were thinned out: in the full panel of roughly 83,000, 20% have a hit. Activity calls are given as the source filed them. How the source made its calls: active means growth percent below 10; inactive means the rest.
Reply using exactly one outcome from class 1 = active, class 0 = inactive

Some entries whose results are on file:
>>> qualitative_label("NC(CCC(=O)NC(CS)C(=O)NCC(=O)O)C(=O)O (stereo not drawn)")
"class 0"
>>> qualitative_label("COc1ccccc1-[n+]1cc(-c2ccc(-c3ccccc3)cc2)n2c1CCCCC2")
"class 1"
>>> qualitative_label("CCN1C(=O)N(CC)C2C1NN=c1s/c(=C\\c3ccc(Br)cc3)c(=O)n12 (stereo not drawn)")
"class 0"
>>> qualitative_label("COc1ccc(-c2conc2-n2nc(-c3ccccc3)nc2-c2ccccc2)cc1")
"class 0"
>>> qualitative_label("COc1ccc(NC(=O)c2sc3c(=O)[nH]c(C(F)(F)F)nc3c2C)cc1")
"class 0"
>>> qualitative_label("COc1cc(/C=N/NC(=O)Cn2c(-c3ccc(C)o3)nc3ccccc32)ccc1OCc1ccccc1")
"class 0"
>>> qualitative_label("O=C(/C=C/c1ccccc1)c1c[nH]c2ccccc2c1=O")
"class 0"
>>> qualitative_label("COc1ccc(/C=N/NC(N)=S)c(OC)n1")
"class 0"

Exercise: Entry COc1ccc2c(c1)OC1=C(C(=O)OC1)C2c1cc(OC)c2c(c1)OCCO2 (stereo not drawn) : call = ?
Key: class 0

Exercise: Entry O=C(Nc1ccc(-n2ccc3c(NC(=O)c4ccccc4)nccc32)cc1)c1ccc(N2CCOCC2)c(C(F)(F)F)c1 : call = ?
Key: class 0

Exercise: Entry C=CCOC(=O)C1=C(C)NC2=C(C(=O)CCC2)C1c1ccc(F)cc1 (stereo not drawn) : call = ?
Key: class 0

Exercise: Entry CCOC(=O)c1cnc(SCC)nc1SC#N : call = ?
Key: class 0

Exercise: Entry c1cc(C2CCCCC2)ccc1-c1cnc2nonc2n1 : call = ?
Key: class 1

Exercise: Entry Clc1ccc(-c2nc(-c3cccs3)no2)cc1 : call = ?
Key: class 0

Exercise: Entry COC1(OC)C2(Cl)CCC1(Cl)C(Cl)=C2Cl : call = ?
Key: class 0
